B1: FAM46C (parent)
chain: FDHLQNRLIATKNPEEIRGGGLLK

Variants of: B1
procedureText: protein stability index of a GFP-peptide fusion (GPS, HEK-293T) (PSI 1-6); higher = more stable;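 also: lentivirally expressed fusions sorted by FACS into six bins by GFP to DsRed ratio, PSI derived from sequencing read proportions per bin multiplied by bin number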
measurementContext: c terminus: a fixed tail appended
Class boundaries, taken from values of protein stability index, are as follows: low bin: < 3; mid bin: ≥ 3 and < 4; high bin: ≥ 4

FDHLRNRLIATKNPEEIRGGGLLK [Q5R] | low bin

Pick a category. Item: YDHLQNRLIATKNPEEIRGGGLLK [F1Y]
mid bin

Pick a category. Item: FDHLQNRLFATKNPEEIRGGGLLK [I9F]
mid bin

Pick a category. Item: FDHLQNRLIATKNPEEIRGGGSLK [L22S]
high bin

Pick a category. Item: FDHLQNRLIATKNPEEIRGGGLQK [L23Q]
high bin

Pick a category. Item: FDHLQNRLIATKNPEEHRGGGLLK [I17H]
high bin

Pick a category. Item: FDHLQNRLICTKNPEEIRGGGLLK [A10C]
mid bin

Pick a category. Item: FDHLQNRLIATKNPEEPRGGGLLK [I17P]
mid bin

Pick a category. Item: FDHLQNRNIATKNPEEIRGGGLLK [L8N]
high bin

Pick a category. Item: FDHLQNRLIATKNPEEIRGGLLLK [G21L]
low bin

Pick a category. Item: FDHLQNRLIGTKNPEEIRGGGLLK [A10G]
mid bin

Pick a category. Item: FDHLQNRLIATKNPQEIRGGGLLK [E15Q]
low bin

Pick a category. Item: FDHLQNRLIATKNPSEIRGGGLLK [E15S]
mid bin

Pick a category. Item: FDHLQNRLYATKNPEEIRGGGLLK [I9Y]
mid bin

Pick a category. Item: FDHLWNRLIATKNPEEIRGGGLLK [Q5W]
low bin

Pick a category. Item: CDHLQNRLIATKNPEEIRGGGLLK [F1C]
low bin

Pick a category. Item: FDHLQNRLIATKNMEEIRGGGLLK [P14M]
mid bin

Pick a category. Item: FDHLQNRLIATANPEEIRGGGLLK [K12A]
mid bin

Pick a category. Item: FDHLQNRLIATKNPEEIRGGGLMK [L23M]
high bin

Pick a category. Item: QDHLQNRLIATKNPEEIRGGGLLK [F1Q]
high bin

Pick a category. Item: FDHLHNRLIATKNPEEIRGGGLLK [Q5H]
mid bin

Pick a category. Item: FKHLQNRLIATKNPEEIRGGGLLK [D2K]
mid bin
